// data source = the Kinase Knowledgebase extract (Sharma et al. 2016)

IC50 values, listed per item
target: ROCK2 (human)

# annotated cases, reported IC50 shown
# molecule, IC50
rows = [
    ("Cc1cccc([N+](=O)[O-])c1C(=O)NCc1nc(-c2c[nH]c3ncccc23)n[nH]1", "> 5 µM"),
    ("O=C(NCc1nc(-c2ccncc2)n[nH]1)c1cccc(Oc2ccccc2)c1", "> 5 µM"),
    ("O=C(NCc1nc(-c2c[nH]c3ncccc23)n[nH]1)c1cc2cc(Cl)ccc2o1", "> 5 µM"),
]

Report IC50 for CC(C)(C)OC(=O)N1CC(O)CC1C(=O)NCc1nc(-c2c[nH]c3ncccc23)n[nH]1 (stereo not given) tested on ROCK2 (human).
> 5 µM

Missing value: IC50, ROCK2 (human), entry `CCN(CC)c1ccc(C(=O)NCc2nc(-c3c[nH]c4ncccc34)n[nH]2)cc1` . Fill in?
> 5 µM

What is its IC50 for ROCK2 (human)? Entry: `CN(Cc1nc(-c2ccncc2)n[nH]1)C(=O)c1ccc(O)cc1O`
> 5 µM

Provide value of IC50 for this record tested with ROCK2 (human): CC(CC(=O)NCc1nc(-c2ccncc2)n[nH]1)CC(C)(C)C (stereo not given)
> 5 µM

Entry O=C(NCc1nc(-c2c[nH]c3ncccc23)n[nH]1)C1CCCN1C(=O)OCc1ccccc1 (stereo not given) , system ROCK2 (human): what IC50 was measured?
> 5 µM

State its IC50 on ROCK2 (human): `O=S(=O)(NCc1nc(-c2ccncc2)n[nH]1)c1ccc(OCc2ccccc2)cc1`
> 5 µM

Query the reported IC50 for ROCK2 (human); item: `O=Cc1ccc(C(=O)NCc2nc(-c3c[nH]c4ncccc34)n[nH]2)cc1`
> 5 µM
